Hello, the source for this data is PubChem BioAssay (EPA / NIEHS), in case you need it.

- Read-out: Monocyte Chemoattractant Protein-1 (MCP1), CCL2 (gene 6347)
- Test Protocol: BSK_CASM3C_MCP1: BioMAP Diversity Plus: CASM3C Assay for Monocyte Chemoattractant Protein-1 (MCP1) Biomarker Activity (AID 2283046);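 note: MCP-1 level quantified by ELISA 24 h after dosing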
- Condition Description: primary human coronary artery smooth muscle cells; actives raise or lower the signal
Calls of active or inactive are those of the source. Rule for the calls: active = hit-call score of the fitted dose curve at least 0.9, where 1 is the maximum; inactive = score below 0.9.
Outcomes you can answer with include only these: y = active, n = inactive

Example results:
1) Cc1cccc2ccccc12; n
2) CC/C(=C(/CC)c1ccc(O)cc1)c1ccc(O)cc1; y
3) CCCCCCCC[Si](OCC)(OCC)OCC; n
4) CCCC(=O)OCCC(C)C; n
5) CC(=O)N1CCN(c2ccc(OC[C@H]3CO[C@](Cn4ccnc4)(c4ccc(Cl)cc4Cl)O3)cc2)CC1; n
6) CCOC(=O)O[C@H](C)OC(=O)c1ccc2c(c1)cc(C(=O)NC1CCN(C(C)C)CC1)n2Cc1cc(-c2ccc(Cl)s2)on1; y
7) O=C(O)Cc1cc(I)c(Oc2ccc(O)c(I)c2)c(I)c1; n
8) CCCCCCCCN(C)CCCCCCCC; n
9) O=C(OCCCCCCOC(=O)c1ccccc1)c1ccccc1; n
10) O=C(Nc1ccc(Cl)cc1)Nc1ccc(Cl)c(Cl)c1; n

Switching to the query record.
Hi, do you know how O=c1[nH]sc2ccccc12 came out in this test? y
